test_summary: Pharmacokinetics after oral administration of CK polymorphs in rats (20 mg/kg)
Assay type: in vivo, Sprague-Dawley rats
condition: male, Sprague-Dawley, rat, plasma, po, 20 mg/kg, male rats, p.o. 20 mg/kg vs i.v. 10 mg/kg, dose-adjusted AUC ratio; read-out: Fabs (absolute bioavailability)
recorded_metric: bioavailability (%)
Report as a plain number; the unit % is understood.

Task item: Query: bioavailability; subject: CC(C)=CCCC(C)(OC1OC(CO)C(O)C(O)C1O)C1CCC2(C)C1C(O)CC1C3(C)CCC(O)C(C)(C)C3CCC12C (stereo not shown) [Form I]
Reply: 3.92

----------
test_summary: Pharmacokinetics after oral administration of CK polymorphs in rats (20 mg/kg)
Format: in vivo, Sprague-Dawley rats
condition: female, Sprague-Dawley, rat, plasma, po, 20 mg/kg, female rats, p.o. 20 mg/kg, mean ± SD (n = 3)
recorded_metric: AUC(0-t)
Hi, when you answer, please include the unit after the number. Thanks!

Task item: Query: AUC(0-t); subject: CC(C)=CCCC(C)(OC1OC(CO)C(O)C(O)C1O)C1CCC2(C)C1C(O)CC1C3(C)CCC(O)C(C)(C)C3CCC12C (stereo not shown) [Form II]
Reply: 2.45 µg·h/mL
